Please provide measured Mouse Plasma Prodrug (%) for the entries that follow.
Type: in vitro ADME, mouse
Conditions: prodrug remaining, 5 μM, 37° C., 30 min
Method: Each test was carried out in duplicate for each time point; 0 min, 15 min, 30 min, 60 min, 120, 240 min. […]
One number for each entry, in %.

Sample records with Mouse Plasma Prodrug (%):
[
  {
    "Smiles Entry": "COc1ccc([C@@]23CCC(OP(=O)(O)O)=C[C@@H]2N(C)CC3)cc1OC",
    "Unit Of Measurement": "%",
    "Mouse Plasma Prodrug (%)": 82.7
  },
  {
    "Smiles Entry": "COc1ccc([C@@]23CCC(OP(=O)(OC(C)C)OC(C)C)=C[C@@H]2N(C)CC3)cc1OC",
    "Unit Of Measurement": "%",
    "Mouse Plasma Prodrug (%)": 74.5
  },
  {
    "Smiles Entry": "CCN(C)C(=O)OC1=C[C@@H]2N(C)CC[C@]2(c2ccc(OC)c(OC)c2)CC1",
    "Unit Of Measurement": "%",
    "Mouse Plasma Prodrug (%)": 96.6
  }
]

In: Check the records and state Mouse Plasma Prodrug (%) for `COc1ccc([C@@]23CCC(OC(=O)OC(C)(C)C)=C[C@@H]2N(C)CC3)cc1OC`
Out: 10.3
